// data source = PubChem BioAssay AID1903

For each of the compounds below, state its inhibition.
Target: Large T antigen (Simian virus 40)
Assay: SV40 large T antigen inhibitors, biochemical (AID 1903)
Conditions: SV40 large T antigen ATPase/helicase inhibition assay; at 20 µM; hits give high values
The campaign covered roughly 310,000 compounds. About 1,200 (0.39%) were called active. Not all results are given here. Potency and affinity values are given separately.
One number for each entry, in %.

Take a look at these entries with their results.
Lookup result for COc1cc(/C=N\Nc2nc(-c3ccc(C)cc3)c(NC(C)=O)s2)ccc1O ; measured inhibition: 35.9

Lookup result for CC(=O)Nc1ccc2nc(CN3CCN(CC=C(C)C)C(CCO)C3)ccc2c1 (stereo unspecified) ; measured inhibition: 5.4

Lookup result for Cc1cc(Cl)c(S(=O)(=O)NC2CCCCC2)cc1OCC(=O)Nc1nncs1 ; measured inhibition: 1.03

Lookup result for Cc1ccc(C(=O)NCCc2n[nH]c(=S)n2C)cc1 ; measured inhibition: 10.6

Lookup result for O=C1CC(N2CCN(c3ccc(F)cc3)CC2)C(=O)N1Cc1cccs1 (stereo unspecified) ; measured inhibition: 7.54

I have 3 compounds here; please give me inhibition for each one.
1. CC(=O)Nc1sc(N/N=C\c2ccccc2F)nc1-c1cccs1
2. O=C(Cc1ccccc1)NCC(=O)N/N=C/c1cccnc1
3. CC(=O)Nc1sc(N/N=C\c2cccc(Cl)c2)nc1-c1cccs1

Solution:
9.59
12.9
18.8

I have 3 compounds here; please give me inhibition for each one.
1. CC(=O)Nc1sc(N/N=C\c2ccccc2)nc1-c1cccs1
2. O=C(CNC(=S)N(Cc1ccccc1Cl)C1CCCC1)NCCN1CCOCC1
3. O=C(NCCO)Nc1ccc2nc(-c3ccco3)c(-c3ccco3)nc2c1

Solution:
1: 21; 2: 3.17; 3: 52.6
